Taken from paper PMC10338367.

tested on: A172 human glioblastoma cells; assay: WST cell viability assay, A172; type: cell-based; details: A172, 72 h
Collected IC50 values appear next to each entry.
Lab book: enter the figure in nM, no units written.

compound	IC50, nM
COc1ccc(C(c2c(O)c3ccccc3oc2=O)c2c(O)c3ccccc3oc2=O)cc1	950

Now take the following compound into account.
## Input Given the compound CCCN(C)CCc1c[nH]c2ccccc12 [MPT, Methylprophyl tryptamine, reference compound] , what is its reported IC50?
## Output 430

====

test system: normal human astrocytes (NHA); experiment: WST cell viability assay, NHA; type: cell-based; details: Homo sapiens, Astrocyte, 24 h
measurementLabel: pIC50
By convention, pIC50 is the negative base-10 log of a molar concentration.

## Input Which pIC50 is reported with normal human astrocytes (NHA) for this entry: COc1ccc(C(c2c(O)c3ccccc3oc2=O)c2c(O)c3ccccc3oc2=O)cc1 [HL] ?
## Output 5.49

====

tested on: A172 human glioblastoma cells; assay: WST cell viability assay, A172; type: cell-based; settings: Homo sapiens, A 172, 24 h, A172, 24 h
measurementLabel: IC50 (nM)
Lab book: enter the figure in nM, no units written.

## Input Given the molecule COc1ccc(C(c2c(O)c3ccccc3oc2=O)c2c(O)c3ccccc3oc2=O)cc1 [HL] , what is its reported IC50?
## Output 2680
